// data source = ChEMBL document CHEMBL1144983

Listed next: entries and their corresponding pIC50.
- experimental.system: D(2) dopamine receptor (Rattus norvegicus)
- Sequence (P61169 whole entry): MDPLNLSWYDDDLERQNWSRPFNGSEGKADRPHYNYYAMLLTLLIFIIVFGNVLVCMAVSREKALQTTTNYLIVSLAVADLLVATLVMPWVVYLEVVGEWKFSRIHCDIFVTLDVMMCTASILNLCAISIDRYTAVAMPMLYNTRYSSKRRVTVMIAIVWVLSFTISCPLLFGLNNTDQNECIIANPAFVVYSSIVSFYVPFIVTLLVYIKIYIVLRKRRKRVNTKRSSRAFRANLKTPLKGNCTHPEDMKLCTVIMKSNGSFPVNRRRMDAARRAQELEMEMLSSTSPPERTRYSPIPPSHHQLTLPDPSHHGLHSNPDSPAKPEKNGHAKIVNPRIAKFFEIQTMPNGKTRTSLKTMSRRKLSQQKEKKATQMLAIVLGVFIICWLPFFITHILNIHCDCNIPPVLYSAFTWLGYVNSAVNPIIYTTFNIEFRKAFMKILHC
- method: In vivo inhibitory activity against dopamine (D2) receptor in rat caudate-putamen tissue
- Assay type: organism-based
pIC50: −log10 of the molar value.
reported.property: pIC50

> print(dat)
                                   compound  reported.property  meas.value
1  CCN1CCC[C@H]1CNC(=O)c1c(OC)ccc(I)c1O [IOLOPRIDE]              pIC50        8.77
2      CCN1CCC[C@H]1CNC(=O)c1c(O)ccc(I)c1OC              pIC50        6.71
